- targetUnderTest: Glutamate NMDA receptor
- assaySummary: Inhibition of N-methyl-D-aspartate glutamate receptor (NMDA receptor) from homogenized rat brain membrane, using [3H]-MK-801 as a radioligand
Give Ki for every item shown.

## Task Query Ki for O=C(O)C(O)[C@]12NC(Cc3ccccc31)c1ccccc12 (stereo partly drawn)
## Result > 1000 µM

## Task Please report the measured Ki for CN1C2CCc3ccccc3C1(O)c1ccccc12 (stereo not drawn)
## Result > 100 µM

## Task Return value of Ki for input c1ccc2c(c1)CC1NC2(C2SCCCS2)c2ccccc21 (stereo not drawn) , no commentary.
## Result > 10 µM
